Where do the numbers come from? From the supplement of paper PMC12042874.

# Assay Procedure: amyloid nucleation score (Sup35N fusion, yeast selection) (log enrichment); library NNK1; higher = more nucleation; inactive = no reads after selection;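 note: zero at mode of non-aggregating sequences after 7 days selection at 30°C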
Measured Endpoint: amyloid nucleation score
// response body must contain only the number

[
  {
    "Substance": "TDLMLYYCYSAVPCWDFPAS",
    "amyloid nucleation score": 0.073
  },
  {
    "Substance": "SSGVFTSI",
    "amyloid nucleation score": -0.042
  }
]

# input Dear colleague, I am looking for the recorded amyloid nucleation score of the following substance: FLVPEVEKIFNIRVLEVRLM
# output -0.834

----------
# Assay Procedure: amyloid nucleation score (Sup35N fusion, yeast selection) (log enrichment); library NNK2; higher = more nucleation; inactive = no reads after selection
Listed next: entries and their corresponding amyloid nucleation score.
Just the number, please.

[
  {
    "Substance": "DTSSYKTYDRLHQLYRNELR",
    "amyloid nucleation score": 0.709
  },
  {
    "Substance": "SVWDYC",
    "amyloid nucleation score": -0.053
  },
  {
    "Substance": "YVHMMSMKPHQLINCLRLFY",
    "amyloid nucleation score": -1.2
  },
  {
    "Substance": "WWGGINSVLVTDEWLVRLGK",
    "amyloid nucleation score": -0.166
  },
  {
    "Substance": "TYSTLFDFRMI",
    "amyloid nucleation score": 0.099
  },
  {
    "Substance": "HKVFISLLCWEKMQKGLTQ",
    "amyloid nucleation score": -0.295
  },
  {
    "Substance": "ETKWPDHYK",
    "amyloid nucleation score": 0.515
  },
  {
    "Substance": "TLMYSQSAIDWTMSSPGRCR",
    "amyloid nucleation score": 1.49
  },
  {
    "Substance": "RFNWFFRHV",
    "amyloid nucleation score": 0.524
  },
  {
    "Substance": "IPCVMG",
    "amyloid nucleation score": 0.004
  }
]

# input // returns reported amyloid nucleation score for input FALNPAESLHIRYIGLALF
# output -1.02

# input Queued: YDVRLFKLTTTSFAIVLSEW
# output 0.823

# input Further, for FMVILSGYIVL ?
# output 0.429

# input Would you kindly repeat that for VPGSMLLCIVQALKHANMAG ?
# output 0.417

# input Now the substance THTGLGG
# output 0.654

# input Now consider IALKFFH .
# output 0.882

# input Follow-up entry: DNWVLYNCFTTSEKLSM
# output 0.553

# input Continue with VVRGRSGLCNMFWCDRQRRL
# output -0.63

# input # repeat for SISRISPTQGIIGQTRFFYV
# output -1.14

# input Now the substance GEPLNGSAGLVGH
# output 0.234

# input Consider next the substance YSSFDISLYFGNHHWSLMTR in the same way.
# output 4.11

# input Subsequent entry: MILNQMYDKFYSRLSSITSR
# output 1.31

----------
# Assay Procedure: amyloid nucleation score (Sup35N fusion, yeast selection) (log enrichment); library NNK2; higher = more nucleation; inactive = no reads after selection
# label = Fulfilled if amyloid nucleation score >= 0.1 else Not fulfilled

The following substances have reported results that may help.
[
  {
    "Substance": "DKWLWEL",
    "Classification": "Fulfilled"
  },
  {
    "Substance": "ARYAVDTSITNECSLALYTS",
    "Classification": "Fulfilled"
  },
  {
    "Substance": "FGVNDLYSDLW",
    "Classification": "Not fulfilled"
  }
]

# input Reported amyloid nucleation score reaches at least 0.1 for SVLEANMHAVWTGRYEN ?
# output Fulfilled

# input One more substance: VEVKNRYRVRKLLCGLLRIR
# output Fulfilled

# input Ok, now RSVSGMVWE
# output Fulfilled

----------
# Assay Procedure: amyloid nucleation score (Sup35N fusion, yeast selection) (log enrichment); library NNK2; higher = more nucleation; inactive = no reads after selection
Quick rule for you: amyloid nucleation score at -0.07 or higher means Fulfilled, lower means Not fulfilled.

[
  {
    "Entry Sequence": "WYKVDFNAWLFCKTIAHIFA",
    "Classification": "Not fulfilled"
  },
  {
    "Entry Sequence": "DSGLVLNAGIIGSV",
    "Classification": "Not fulfilled"
  },
  {
    "Entry Sequence": "FCRWSVTFNFRSMIGPGS",
    "Classification": "Fulfilled"
  }
]

# input Is amyloid nucleation score for MVDTTRSTCISNSISWCAID at or above -0.07?
# output Fulfilled

# input Next sequence up: SKMWTIRYFSLVRCLHGLLN
# output Not fulfilled

# input Next up: RRLFSVKIAYLCDT
# output Fulfilled

# input Note, next up: CLRSCRPYSQTIINVA
# output Fulfilled

# input Lookup RCLTELTNETNYVGAG
# output Fulfilled

# input Next sequence up: LLPWSPLKVVTSGYSTF
# output Not fulfilled

# input Similarly, HSLSFLMNSFMRYRSCLVVA ?
# output Not fulfilled

# input Then VFFSESERYSGVKLGAVEDT ?
# output Fulfilled

# input Moving on to VFFRLMKPNFGLP
# output Fulfilled

# input Repeat with HVVVDCISNCEFTCMWCSAY
# output Fulfilled

# input // repeat for HDYRVTYDVF and report
# output Not fulfilled

# input # repeat for AFRFWFHGSMLVAHLSSWYY
# output Fulfilled

# input Request: RGVFAMLTVSYGNS
# output Fulfilled

----------
# Assay Procedure: amyloid nucleation score (Sup35N fusion, yeast selection) (log enrichment); library NNK3; higher = more nucleation; inactive = no reads after selection
Measured Endpoint: amyloid nucleation score

Solved cases (10 shown):
[
  {
    "Substance": "RSDENWRMTYWRAGCRVLDV",
    "amyloid nucleation score": "inactive"
  },
  {
    "Substance": "PVDIDPLGSFVD",
    "amyloid nucleation score": "inactive"
  },
  {
    "Substance": "ISVSRKLLKCLVKCMNPGCG",
    "amyloid nucleation score": "inactive"
  },
  {
    "Substance": "PRLAIKAHGVWVGKSFIGET",
    "amyloid nucleation score": "inactive"
  },
  {
    "Substance": "WWVIVGSAYVFDISIHFSSP",
    "amyloid nucleation score": 1.24
  },
  {
    "Substance": "SGASYVQS",
    "amyloid nucleation score": "inactive"
  },
  {
    "Substance": "NGGAHSLGK",
    "amyloid nucleation score": "inactive"
  },
  {
    "Substance": "KITSRGCN",
    "amyloid nucleation score": "inactive"
  },
  {
    "Substance": "TVTHLFGHRVGMSLVFNSTY",
    "amyloid nucleation score": "inactive"
  },
  {
    "Substance": "VWQYNDGSYCVVMYVSSSDY",
    "amyloid nucleation score": 1.06
  }
]

# input // amyloid nucleation score lookup, key: VYVCYIL
# output 1.73

# input Another: KSERLNLVGILVSLVRPVCL
# output inactive

# input Please do the same for FFPFPKFWAGIVIAFY as well.
# output inactive

# input Another: YRPSIRLTGCLSSLYTLFYG
# output 1.92

# input Let us now turn to SMSPFRKFLTFWNMGPKRTL
# output -1.06

# input Cool, now ITMTCFCIMGAESISNLPMW
# output 1.33

# input Now the same for VNGFFLVACTCSYFNNRSSW
# output 1.57

# input VPNSRIVTREGCWESACGIR ?
# output inactive

# input Follow-up entry: ADFTRGGT
# output inactive

# input How about AYLLSIANCFSAVYLHPSDS ?
# output 0.216

# input Moving on to KREAFNQALADNHQLQMLYE
# output 0.615

# input Here is the next substance: AMSIVERQGDVWLSYRKWNG
# output inactive

# input # repeat for FRIFVRRVI
# output 2.33

# input Now the same for LPAGVFTDSACVVVSANKAT
# output inactive

# input Next substance up: FLRFSAVDVSNGGNSMLL
# output inactive

# input Could you do the same for VSGLDWFM , please?
# output inactive

# input Further, for YHRRLSTVLMGCMNRGLNYL ?
# output inactive

# input Here is the next substance: LFHHNCWNSNLSKVYMPACN
# output 0.761

----------
# Assay Procedure: amyloid nucleation score (Sup35N fusion, yeast selection) (log enrichment); library NNK2; higher = more nucleation; inactive = no reads after selection
yes means recorded amyloid nucleation score is -0.2 or above; no means it is below -0.2.

[
  {
    "Entry Sequence": "VTNVCGWRTEGWYDPGSAKT",
    "Classification": "yes"
  },
  {
    "Entry Sequence": "TVFSIMLLSRM",
    "Classification": "yes"
  },
  {
    "Entry Sequence": "KKSHFLKRYNTAYVGRHLVH",
    "Classification": "yes"
  },
  {
    "Entry Sequence": "SLSLGLSSCEPYYAVC",
    "Classification": "no"
  }
]

# input Hello, I need to know if CSRRNRRIGVALRFIFLDIY has measured amyloid nucleation score not below -0.2. Thanks!
# output no

# input Entry to check: SGFGGLEGFIRPSYSLLAGW
# output no

# input Another: NEHGGLVNYGVCISGATYLA
# output yes

# input LEVHKGGLNVLSHEGLDVET , same question.
# output yes

# input Repeat with HYVPDPDITL
# output no

# input Check YDGSVKMGVFCGVRVYAPVS too.
# output yes

# input Same for VSLSERLTHLLCIRF
# output yes

# input Now give it for NNNCGRLGVYI too.
# output no

# input Same question, VQNMIDKVMKYWTYSICSTV this time
# output yes

# input Further, for NIVYESDVVFSCISKYWL ?
# output yes

# input Do the same for SWTCHSFYFSDSFRHGYR please
# output yes
